Quick reference: self-cleavage of the listed items.
B1: HDV Ribozyme (parent)
chain: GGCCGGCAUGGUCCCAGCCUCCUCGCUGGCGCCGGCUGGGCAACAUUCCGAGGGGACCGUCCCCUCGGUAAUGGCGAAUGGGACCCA

- Variants of: B1
- assay info: self-cleavage, relative activity (ratio to wild type); higher = more cleavage; co-transcriptional

Completed entries (count: 5):
>  <input sequence>
GGCCGGCAUGGUCCCAGCCUCCUCGCUGGCGCCGGAUGGGCAACAUUCCGAGGGGACCGUCCCCUCGGUAAUGGCGAAUGGGACGCA

>  <result>
0.18

$$$$
>  <input sequence>
GGCCGGCAUGGUCCCAGCCUCCUGGCUGGCGCCGGCUGGGCAACAUUCCGAGGGGACCGUCUCCUCGGUAAUGGCGAAUGGGACCCA

>  <result>
0.142

$$$$
>  <input sequence>
GGCCGGCAUGGUCCCAGCCUCCUCGCUGGCGCCGACUGGGCAACAUUCCGAGGGGACCGUCCCCUCGGUAAUUGCGAAUGGGACCCA

>  <result>
0.223

$$$$
>  <input sequence>
GGCCGGCAUGGUCCCAGCCUCCUCGCUGGCGCCGCCUGGGCAACAUUCCGAGGGCACCGUCCCCUCGGUAAUGGCGAAUGGGACCCA

>  <result>
0.366

$$$$
>  <input sequence>
GGCCGGCAUGGUCCCAGCCUCCUCGCUAGCGCCGGCUGGGCAACAUUCCGAGGGGACCGUCCACUCGGUAAUGGCGAAUGGGACCCA

>  <result>
0.128

$$$$

stdin: I am curious: what self-cleavage value has been reported for GGCCGGCAUGGUCCCAGCCUCCUCGCUGGCUCCGGCUGGGCAACAUUCCGAGGGGACCGUCCCCUCGGUAAUGGCGAAUGGGACCAA ?
stdout: 0.394

stdin: Could you tell me which self-cleavage is on file for GGCCGGCAUGGUCCCAGCCUCCUCGCUGGCGCCGGCUGGGCAACAUUCCGAGGGGACCGUCCACUCGGGAAUGGCGAAUGGGACCCA ?
stdout: 0.884

stdin: // query self-cleavage value for entry GGCCGGCAUGGUCCCAGCCUCCUCGCUGGCGCCGGCGGGGCAACAUUCCGAGGGGACCGUCCCCUCGGUAAUCGCGAAUGGGACCCA
stdout: 0.0791

stdin: Recorded self-cleavage of GGCCGGCAUGGUCCCAGCCUCCUCGCUGGCGCCGGCUGGGCAACAGUCCGAGGGAACCGUCCCCUCGGUAAUGGCGAAUGGGACCCA , please.
stdout: 0.649

stdin: Given GGCCGGCAUGGUCCCAGCCUCCUCGCUGGCGCCGGCUGGGCAACACUCCGAGGGGACCGUCCCCUCGGUAAUGUCGAAUGGGACCCA , state its recorded self-cleavage.
stdout: 0.554

stdin: Field request: self-cleavage | item: GGCCGGCAUGGUACCAGCCUCCUCGCUGGCGCCGGCUGGGCAAUAUUCCGAGGGGACCGUCCCCUCGGUAAUGGCGAAUGGGACCCA
stdout: 0.0652

stdin: Entry GGCCGGCAUGGUCCCAGCCUCCUCGCUGGCGCCGGCUGGGCAACAUUCCGAGGGGACCGUCCCCUCGGAAAUGGCGAAUCGGACCCA has what self-cleavage?
stdout: 0.38

stdin: self-cleavage for GGCCGGCAUGGUCCCAACCUCCUCGCUGGCGCCGGCUGGGCAACAUUCCGAAGGGACCGUCCCCUCGGUAAUGGCGAAUGGGACCCA ?
stdout: 0.831

Origin of the recorded values: the RNAGym collection of RNA variant scans (doi:10.7554/elife.80360)
